# MEASUREMENT NOTES: AUC in Sprague-Dawley rat at 1 mg/kg, po after 4 hrs
# Format: ADME, organism-based
# Set-up: time < 4 hr, dose 1 mg/kg, route oral
# ASSAY CONTEXT: plasma
PROPERTY LABEL: AUC at 4 h (µM·h)
Answer with a number only, understood to be in µM·h.

What AUC at 4 h value was documented for this compound, Cc1cccc2c1C(=O)NC1CNCCN21 (single isomer, unassigned; (+)) ?
1.04

---

# MEASUREMENT NOTES: AUC in Sprague-Dawley rat at 10 mg/kg, po after 4 hrs
# Assay type: ADME, organism-based
# Parameters: time < 4 hr, dose 10 mg/kg, route oral
# ASSAY CONTEXT: plasma
PROPERTY LABEL: AUC at 4 h (µM·h)
Answer with a number only, understood to be in µM·h.

What AUC at 4 h value was documented for this compound, Cc1cccc2c1C(=O)NC1CNCCN21 (single isomer, unassigned; (+)) ?
1.24
